IC50 for assorted molecules
# Tested on: EPO
# measurement description: Determination of EPO inhibition rate by compounds using Hep3B cells (EPO ELISA of culture supernatant)
# Format: cell-based
# condition parameters: Homo sapiens, EPO induced with 30 μM (6′-hydroxy-3′-(4-methoxyphenyl)-8′-oxo-8′H-spiro[cyclopentane-1,5′-indolizine]-7′-carbonyl)glycine or its analogues, test compound 48 hours
The reply should contain only the number, in nM.

Example molecules with recorded IC50:
FC(F)OC1=CC(C(F)(F)F)=CN2CC3(CC=Cc4c3ccnc4Cl)N=C12 (racemic) [Example 2] : 35.8
Cc1ccc2c(c1F)C=CCC21CN2C=C(C(F)(F)F)C=C(OC(F)F)C2=N1 (stereo not drawn) [Example 18] : 3.48
FC(F)OC1=CC(C(F)(F)F)=CN2CC3(CC=C(Cl)c4c3ccnc4Cl)N=C12 (stereo not drawn) [Example 7] : 24.4

Notebook: FC(F)OC1=CC(C(F)(F)F)=CN2CC3(CC=C(C(F)(F)F)c4c3ccnc4Cl)N=C12 (stereo not drawn) [Example 8] , IC50 read as 148

Notebook: FC1=CCC2(CN3C=C(C(F)(F)F)C=C(OC(F)F)C3=N2)c2cccc(F)c21 (racemic) [Example 15] , IC50 read as 3.04

Notebook: FC1=Cc2c(ccnc2Cl)[C@]2(C1)CN1C=C(C(F)(F)F)C=C(OC(F)F)C1=N2 (single isomer, unassigned) [Example 10-A] , IC50 read as 2150
